- System: MDA-MB-231 breast
- TEST_PROTOCOL: NCI tumour cell line growth inhibition, 48 h
RECORDED_ENDPOINT: TGI (µM)
Numbers only, in µM.

compound="NC(Cc1ccc(O)cc1)C(=O)N/N=C/c1ccc(N(CCCl)CCCl)cc1 (configuration not stated)" recorded_endpoint=TGI unit_abbreviation=µM endpoint_value=32.6

List reported TGI for each of these compounds:
1. N#Cc1c(N)nc2c(N=Nc3ccccc3)c(N)nn2c1Nc1ccccc1
2. CS(=O)/C(C#N)=C\C=C\c1cccc(Cl)c1 (configuration not stated)
3. Cc1cc(Br)c2nsnc2c1[N+](=O)[O-]
4. CC(C)(C)OC(=O)N1CCCC1C(=O)NCCNc1ccc(NCCNC(=O)C2CCCN2C(=O)OC(C)(C)C)c2c1C(=O)c1ccccc1C2=O (configuration not stated)
5. Cc1cc(O)c2cc3c(O)c(O)ccc3cc2c1
6. CCCCCCCCCCCCNC(=O)[C@H]1CSC(c2cc(Br)cs2)N1 (some centres not stated)

[47.6, 11.7, 15.6, 25.9, 3.21, 1.61]

Value sought for every listed compound: TGI.
1. O=C1CC(NCCCNC2CC(=O)c3c(Br)sc(Br)c32)c2c(Br)sc(Br)c21 (configuration not stated)
2. COc1ccc(-c2nnc(Nc3nc(O)c(C4=c5cc(OC(F)(F)F)ccc5=NC4=O)s3)o2)cc1

[4.3, 30.3]
